Test system: PA-1
assay_explanation: Primary qHTS to identify gynecologic anti-cancer compounds using libraries of approved drugs and bioactive compounds (AID 1345084); also: nearly all actives have a fitted effect of over 55% in size
particulars: Gynecologic cancer cell panel viability, ATPlite luminescence, 48 h; series mostly up to 57.5 µM
Results filed as inconclusive are left out. The source made the active and inactive calls. Calls follow the shape of the dose curve; as a rule, active = well fitted cell-killing curve with a large enough effect; inconclusive = small, poorly fitted or top-dose-only effect, or effect the other way; inactive = flat fitted curve, though single readings scatter.
Classes to choose from: active, inactive

Observe how each entry below is paired with its result.
molecule	class
c1ccc(CCNc2nc(-c3ccccc3)cs2)cc1	inactive
CCOc1ccc2nc(S(N)(=O)=O)sc2c1	inactive
CCCCCCCC/C=C/C(=O)O	inactive

I would be grateful if you could indicate the recorded call for CC(N)C(=O)OC(C)(C)Cc1ccc(Cl)cc1 (stereo not given) .
inactive

I would be grateful if you could indicate the recorded call for "[O-][n+]1ccccc1SSc1cccc[n+]1[O-]" .
active

I would be grateful if you could indicate the recorded call for "CCCOC(=O)c1ccc(O)cc1" .
inactive

I would be grateful if you could indicate the recorded call for "CC1(C)[C@@H](O[C@H]2O[C@H](C(=O)O)[C@@H](O)[C@H](O)[C@H]2O[C@@H]2O[C@H](C(=O)O)[C@@H](O)[C@H](O)[C@H]2O)CC[C@]2(C)[C@H]3C(=O)C=C4[C@@H]5C[C@@](C)(C(=O)O)CC[C@]5(C)CC[C@@]4(C)[C@]3(C)CC[C@@H]12" .
inactive

I would be grateful if you could indicate the recorded call for "Nc1ccc(O)c(C(=O)O)c1" .
inactive
